Ref: patent US11180510B2

Molecular target: BRD4(BD1) (Homo sapiens, UniProt O60885)
Experiment: Isothermal Titration Calorimetry
Format: binding
Details: Brd4 (BD1), FIG. 1; read-out: KD by ITC (orthogonal assay)
Measured metric: pKd
Interpret pKd as the negative base-10 log of the concentration measured in mol/L.

Look at this compound and give its reported pKd. CCn1cnc2c1c(=O)[nH]c(=O)n2Cc1ccc(CNS(=O)(=O)c2ccc(OC3CCOCC3)c(F)c2)cc1 [Compound 43c] 7.05

* * *

Target: BRD4(BD1) (Homo sapiens)
Assay: Isothermal Titration Calorimetry
Assay type: binding
Details: ITC; read-out: Binding affinity (Kd) to BRD4(1) by Isothermal Titration Calorimetry
Cut-off 2000 nM on Kd: below means T, at or above means F.

Given the entry CCn1cnc2c1c(=O)[nH]c(=O)n2Cc1ccc(CNS(=O)(=O)c2cccc(-c3ccccc3)c2)cc1 [Compound 29c] , would its reported Kd be below 2000 nM? T

What would you report for CCn1cnc2c1c(=O)[nH]c(=O)n2Cc1ccc(CNS(=O)(=O)c2ccc(OC3CCOCC3)cc2)cc1 [Compound 43b] ? T

What would you report for Cc1noc(C)c1CCNC(=O)c1ccc(CNS(=O)(=O)c2ccc3c(c2)CCCC(=O)N3)cc1 [Compound 16a] ? F

What would you report for CCn1cnc2c1c(=O)[nH]c(=O)n2Cc1ccc(CNS(=O)(=O)c2ccc(OCc3ccccc3)cc2)cc1 [Compound 31a] ? T

What would you report for CCCCc1c(C)nc2nc(SCc3nc4c(c(=O)[nH]c(=O)n4Cc4ccc(CNS(=O)(=O)c5ccc6c(c5)CCCC(=O)N6)cc4)n3CC)nn2c1C [Compound 32c] ? F

What would you report for O=C1CCCc2cc(S(=O)(=O)C3CCC(C(=O)NCCc4ccccn4)CC3)ccc2N1 (stereo not shown) [Compound 7a] ? F

What would you report for O=C1CCCc2cc(S(=O)(=O)NCC3CCC(C(=O)NCCc4cccs4)CC3)ccc2N1 (single isomer, unassigned) [Compound 5b] ? F
